variants and their reported protein stability index
B1: ESR2 (parent)
chain: KSCQACRLRKCYEVGMVKCGSRRE

- Variants of: B1
- TEST DESCRIPTION: protein stability index of a GFP-peptide fusion (GPS, HEK-293T) (PSI 1-6); higher = more stable;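 also: lentivirally expressed fusions sorted by FACS into six bins by GFP to DsRed ratio, PSI derived from sequencing read proportions per bin multiplied by bin number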
- RUN CONDITIONS: c terminus: a fixed tail appended
Lab note: jot down the number only; don't add units.

Below are worked cases with known answers.
INSERT INTO results (variant, reading) VALUES
  ('E13T', 1.96),
  ('E13I', 2.03);

Can you look up the measured protein stability index of R22W for me?
2.05

These entries and their values trace back to the supplement of paper PMC10567573.
